- System: 556581-035-R-J1-PDC complex spheroid growth
- assay.overview: Anticancer human tumor 556581-035-R-J1-PDC patient-derived ovarian carcinoma cell line growth inhibition [Asc]
- test.conditions: second compound 0.03 µM; first compound 0.1 µM; stronger effect = lower value
assay.metric: viability, T/C (%)
One number for each entry, in %.

Example entries and their recorded answers appear below.
# compound, viability, T/C, %
data = [
    ("O=C(c1cc(Cc2n[nH]c(=O)c3ccccc23)ccc1F)N1CCN(C(=O)C2CC2)CC1 + CCN1C(C(=O)NC23CCC(C(=O)O)(CC2)CC3)C(c2cccc(Cl)c2F)C2(C(=O)Nc3cc(Cl)ccc32)C12CCCCC2", 98),
    ("C=CC(=O)N1CCN(c2nc(=O)n(-c3c(C)ccnc3C(C)C)c3nc(-c4c(O)cccc4F)c(F)cc23)C(C)C1 (stereo unspecified) + CCN1C(C(=O)NC23CCC(C(=O)O)(CC2)CC3)C(c2cccc(Cl)c2F)C2(C(=O)Nc3cc(Cl)ccc32)C12CCCCC2", 98.7),
    ("NC1CCC(NC2CC2c2ccccc2)CC1 (stereo unspecified) + CCN1C(C(=O)NC23CCC(C(=O)O)(CC2)CC3)C(c2cccc(Cl)c2F)C2(C(=O)Nc3cc(Cl)ccc32)C12CCCCC2", 84.5),
    ("CCN1CCN(Cc2ccc(Nc3ncc(F)c(-c4cc(F)c5nc(C)n(C(C)C)c5c4)n3)nc2)CC1 + CCN1C(C(=O)NC23CCC(C(=O)O)(CC2)CC3)C(c2cccc(Cl)c2F)C2(C(=O)Nc3cc(Cl)ccc32)C12CCCCC2", 81.8),
    ("Cn1ncnc1[C@H]1c2n[nH]c(=O)c3cc(F)cc(c23)N[C@@H]1c1ccc(F)cc1 + CCN1C(C(=O)NC23CCC(C(=O)O)(CC2)CC3)C(c2cccc(Cl)c2F)C2(C(=O)Nc3cc(Cl)ccc32)C12CCCCC2", 95.2),
]

Consider the record given below.
What does the record list as viability, T/C for CNC(C)C(=O)NC1CN(S(=O)(=O)c2cccc(S(=O)(=O)N3CCC4CCC(C(=O)NC(c5ccccc5)c5ccccc5)N4C(=O)C(NC(=O)C(C)NC)C3)c2)CCC2CCC(C(=O)NC(c3ccccc3)c3ccccc3)N2C1=O (stereo unspecified) + CCN1C(C(=O)NC23CCC(C(=O)O)(CC2)CC3)C(c2cccc(Cl)c2F)C2(C(=O)Nc3cc(Cl)ccc32)C12CCCCC2 ?
76.4

###

- System: 556581-035-R-J1-PDC complex spheroid growth
- assay.overview: Anticancer human tumor 556581-035-R-J1-PDC cell line growth inhibition [Asc];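 further: spheroids exposed to agents for 7 days before viability read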
- test.conditions: second compound 0.1 µM; first compound 0.00316 µM; stronger effect = lower value
assay.metric: viability, T/C (%)
Answers are plain numbers, in %.

Example entries and their recorded answers appear below.
# compound, target.or.test.system, assay.metric, obs.value
measured = [
    ("O=C(c1ccc(F)c(F)c1Nc1ccc(I)cc1F)N1CC(O)([C@@H]2CCCCN2)C1 + Cc1c(S(C)(=O)=O)c(-c2cc(F)cc(N3CCN(c4ccc(NS(=O)(=O)c5ccc(NC(CCN6CCC(C(=O)OCCCP(=O)(O)O)CC6)CSc6ccccc6)c(S(=O)(=O)C(F)(F)F)c5)cc4)CC3)c2)c(-c2ccc(Cl)cc2)n1C(C)C", "556581-035-R-J1-PDC complex spheroid growth", "viability, T/C", 73),
    ("Cn1ncnc1[C@H]1c2n[nH]c(=O)c3cc(F)cc(c23)N[C@@H]1c1ccc(F)cc1 + CNC(C)C(=O)NC1CN(S(=O)(=O)c2cccc(S(=O)(=O)N3CCC4CCC(C(=O)NC(c5ccccc5)c5ccccc5)N4C(=O)C(NC(=O)C(C)NC)C3)c2)CCC2CCC(C(=O)NC(c3ccccc3)c3ccccc3)N2C1=O", "556581-035-R-J1-PDC complex spheroid growth", "viability, T/C", 65.5),
    ("NC1CCC(NC2CC2c2ccccc2)CC1 (stereo unspecified) + Cc1c(S(C)(=O)=O)c(-c2cc(F)cc(N3CCN(c4ccc(NS(=O)(=O)c5ccc(NC(CCN6CCC(C(=O)OCCCP(=O)(O)O)CC6)CSc6ccccc6)c(S(=O)(=O)C(F)(F)F)c5)cc4)CC3)c2)c(-c2ccc(Cl)cc2)n1C(C)C", "556581-035-R-J1-PDC complex spheroid growth", "viability, T/C", 64.5),
    ("O=C(c1ccc(F)c(F)c1Nc1ccc(I)cc1F)N1CC(O)([C@@H]2CCCCN2)C1 + CNC(C)C(=O)NC1CN(S(=O)(=O)c2cccc(S(=O)(=O)N3CCC4CCC(C(=O)NC(c5ccccc5)c5ccccc5)N4C(=O)C(NC(=O)C(C)NC)C3)c2)CCC2CCC(C(=O)NC(c3ccccc3)c3ccccc3)N2C1=O", "556581-035-R-J1-PDC complex spheroid growth", "viability, T/C", 68.3),
    ("NC1CCC(NC2CC2c2ccccc2)CC1 (stereo unspecified) + CNC(C)C(=O)NC1CN(S(=O)(=O)c2cccc(S(=O)(=O)N3CCC4CCC(C(=O)NC(c5ccccc5)c5ccccc5)N4C(=O)C(NC(=O)C(C)NC)C3)c2)CCC2CCC(C(=O)NC(c3ccccc3)c3ccccc3)N2C1=O", "556581-035-R-J1-PDC complex spheroid growth", "viability, T/C", 75.1),
    ("Cn1ncnc1[C@H]1c2n[nH]c(=O)c3cc(F)cc(c23)N[C@@H]1c1ccc(F)cc1 + Cc1c(S(C)(=O)=O)c(-c2cc(F)cc(N3CCN(c4ccc(NS(=O)(=O)c5ccc(NC(CCN6CCC(C(=O)OCCCP(=O)(O)O)CC6)CSc6ccccc6)c(S(=O)(=O)C(F)(F)F)c5)cc4)CC3)c2)c(-c2ccc(Cl)cc2)n1C(C)C", "556581-035-R-J1-PDC complex spheroid growth", "viability, T/C", 94.8),
]

Report viability, T/C for each item below.
1. CCN1CCN(Cc2ccc(Nc3ncc(F)c(-c4cc(F)c5nc(C)n(C(C)C)c5c4)n3)nc2)CC1 + Cc1c(S(C)(=O)=O)c(-c2cc(F)cc(N3CCN(c4ccc(NS(=O)(=O)c5ccc(NC(CCN6CCC(C(=O)OCCCP(=O)(O)O)CC6)CSc6ccccc6)c(S(=O)(=O)C(F)(F)F)c5)cc4)CC3)c2)c(-c2ccc(Cl)cc2)n1C(C)C
2. CNC(C)C(=O)NC1CN(S(=O)(=O)c2cccc(S(=O)(=O)N3CCC4CCC(C(=O)NC(c5ccccc5)c5ccccc5)N4C(=O)C(NC(=O)C(C)NC)C3)c2)CCC2CCC(C(=O)NC(c3ccccc3)c3ccccc3)N2C1=O (stereo unspecified) + Cc1c(S(C)(=O)=O)c(-c2cc(F)cc(N3CCN(c4ccc(NS(=O)(=O)c5ccc(NC(CCN6CCC(C(=O)OCCCP(=O)(O)O)CC6)CSc6ccccc6)c(S(=O)(=O)C(F)(F)F)c5)cc4)CC3)c2)c(-c2ccc(Cl)cc2)n1C(C)C

1. 99.3
2. 68.6

Report viability, T/C for each item below.
1. CCN1CCN(Cc2ccc(Nc3ncc(F)c(-c4cc(F)c5nc(C)n(C(C)C)c5c4)n3)nc2)CC1 + CNC(C)C(=O)NC1CN(S(=O)(=O)c2cccc(S(=O)(=O)N3CCC4CCC(C(=O)NC(c5ccccc5)c5ccccc5)N4C(=O)C(NC(=O)C(C)NC)C3)c2)CCC2CCC(C(=O)NC(c3ccccc3)c3ccccc3)N2C1=O
2. COc1c(OCCCN2CCOCC2)ccc2c3n(c(=NC(=O)c4cnc(N)nc4)nc12)CCN3 + CNC(C)C(=O)NC1CN(S(=O)(=O)c2cccc(S(=O)(=O)N3CCC4CCC(C(=O)NC(c5ccccc5)c5ccccc5)N4C(=O)C(NC(=O)C(C)NC)C3)c2)CCC2CCC(C(=O)NC(c3ccccc3)c3ccccc3)N2C1=O
3. COc1c(OCCCN2CCOCC2)ccc2c3n(c(=NC(=O)c4cnc(N)nc4)nc12)CCN3 + Cc1c(S(C)(=O)=O)c(-c2cc(F)cc(N3CCN(c4ccc(NS(=O)(=O)c5ccc(NC(CCN6CCC(C(=O)OCCCP(=O)(O)O)CC6)CSc6ccccc6)c(S(=O)(=O)C(F)(F)F)c5)cc4)CC3)c2)c(-c2ccc(Cl)cc2)n1C(C)C

1. 73.6
2. 58.6
3. 71

###

Answer each item with its documented viability, T/C.
- System: 556581-035-R-J1-PDC complex spheroid growth
- assay.overview: Anticancer human tumor 556581-035-R-J1-PDC cell line growth inhibition [Asc];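 further: spheroids exposed to agents for 7 days before viability read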
- test.conditions: second compound 1 µM; first compound 10 µM; stronger effect = lower value
- Excerpt: Multicellular complex tumor spheroid response to apoptosis pathway targeting inhibitors Alrizomadlin, Pelcitoclax, and Dasminapant in combination with a variety of drugs and investigational agents in selected tumor cell lines […] Compounds. […] If the clinical Cmax for an agent had not been determined, the highest concentration tested was 10 microM. […]
One number for each entry, in %.

# compound, target.or.test.system, obs.value
rows = [
    ("C=C(F)C(=O)N1CCN(c2nc(OCC3CCCN3C)nc3c2CCN(c2cccc4cccc(Cl)c24)C3)CC1CC#N (configuration not stated) + Cc1c(S(C)(=O)=O)c(-c2cc(F)cc(N3CCN(c4ccc(NS(=O)(=O)c5ccc(NC(CCN6CCC(C(=O)OCCCP(=O)(O)O)CC6)CSc6ccccc6)c(S(=O)(=O)C(F)(F)F)c5)cc4)CC3)c2)c(-c2ccc(Cl)cc2)n1C(C)C", "556581-035-R-J1-PDC complex spheroid growth", 25.7),
]

Consider the record given below.
What does the record list as viability, T/C for O=C(c1cc(Cc2n[nH]c(=O)c3ccccc23)ccc1F)N1CCN(C(=O)C2CC2)CC1 + CNC(C)C(=O)NC1CN(S(=O)(=O)c2cccc(S(=O)(=O)N3CCC4CCC(C(=O)NC(c5ccccc5)c5ccccc5)N4C(=O)C(NC(=O)C(C)NC)C3)c2)CCC2CCC(C(=O)NC(c3ccccc3)c3ccccc3)N2C1=O ?
61.2
